B1: Subtilisin-chymotrypsin inhibitor-2A, P01053 (parent)
chain: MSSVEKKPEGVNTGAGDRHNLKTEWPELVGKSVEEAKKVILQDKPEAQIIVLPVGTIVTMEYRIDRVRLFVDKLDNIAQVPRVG

- Variants of: B1
- test settings: Hordeum vulgare; pH 6.25; 25 °C; GdnHCl; Fluorescence; MES 50 mM; reversible: yes; structure 2CI2; whole UniProt chain shown
# denaturant midpoint (higher = more stable) values compiled below
API: value field is a number in M; no unit string.

Recorded denaturant midpoint (higher = more stable), per entry:
>>> number("S32A E34A E35A")
3.14
>>> number("E27Q")
3.68
>>> number("L41G")
3.29
>>> number("L52A F70A")
1.53
>>> number("E27A")
3.76

Prompt: For the variant shown here, L52I , give the reported denaturant midpoint (higher = more stable).
Completion: 3.87

Prompt: Another variant to look at: K37A
Completion: 3.75

Prompt: Another variant: K73N
Completion: 4

Prompt: Now try E34D .
Completion: 3.73

Prompt: Another variant to check: K44A
Completion: 3.67
